- Tested on: PBMC
- protocol_summary: Induction of TNFalpha production in human PBMC at 1 ug/ml after 48 hrs by ELISA
- Type: functional
measured_metric: Activity

Here is how some compounds turned out for Activity.
Req: Given the compound `COc1ccc(C(=O)O[C@@H]2C[C@](C)(O)[C@H]3[C@H](O[C@@H]4O[C@H](CO)[C@@H](O)[C@H](O)[C@H]4O)OC=C[C@H]32)cc1OC` , what is its reported Activity?
Resp: 12.6 pg/mL

Req: Look up Activity for this compound: CC1(C)[C@H](O)CC[C@]2(C)[C@H]3CC=C4[C@@H]5C[C@](C)(C(=O)O)C[C@H](O)[C@]5(C)CC[C@@]4(C)[C@]3(C)CC[C@@H]12 [TRIPTOCALLIC ACID D]
Resp: <7.8 pg/mL

Fill in Activity for each of the 8 compounds listed.
1. C[C@H]1[C@H](C)CC[C@]2(CO)CC[C@]3(C)C(=CC[C@@H]4[C@@]5(C)CC[C@H](OC(=O)/C=C/c6ccc(O)c(O)c6)C(C)(C)[C@@H]5CC[C@]43C)[C@H]12
2. COc1ccc([C@H]2Oc3cc(O)cc(O)c3C[C@H]2O)cc1OC
3. COc1cc(C(=O)O[C@@H]2C[C@](C)(O)[C@H]3[C@H](O[C@@H]4O[C@H](CO)[C@@H](O)[C@H](O)[C@H]4O)OC=C[C@H]32)ccc1O
4. CC1(C)C(=O)CC[C@]2(C)[C@H]3CC=C4[C@@H]5C[C@]6(C)C[C@@H](OC6=O)[C@]5(C)CC[C@@]4(C)[C@]3(C)CC[C@@H]12 [WILFORLIDE B]
5. CC(=O)OC[C@]12[C@H](OC(C)=O)[C@H](OC(C)=O)[C@@H]3[C@@H](OC(C)=O)[C@@]14O[C@@]3(C)COC(=O)c1cccnc1C(C)C(C)C(=O)O[C@@H]([C@H](OC(C)=O)[C@@H]2OC(=O)c1ccccc1)[C@]4(C)O (some centres not stated) [MAYTEINE]
6. C[C@@H]1[C@H]2C3=CC[C@@H]4[C@@]5(C)CC[C@@H](O)C(C)(C)[C@@H]5CC[C@@]4(C)[C@]3(C)CC[C@@]2(C)[C@@H](O)C[C@H]1C(=O)O [TRIPTOCALLIC ACID A]
7. CC1(C)[C@H](O)CC[C@]2(C)[C@H]3CC=C4[C@@H]5C[C@](C)(C(=O)O)C[C@@H](O)[C@]5(C)CC[C@@]4(C)[C@]3(C)CC[C@@H]12
8. CC(=O)OC[C@]12[C@H](OC(=O)c3ccccc3)[C@H](OC(C)=O)[C@@H]3[C@@H](OC(C)=O)[C@@]14O[C@@]3(C)COC(=O)c1cccnc1C(C)C(C)C(=O)O[C@@H]([C@H](OC(C)=O)[C@@H]2OC(=O)c1ccccc1)[C@]4(C)O (some centres not stated) [EBENIFOLINE E III]

Resp:
<7.8 pg/mL
<7.8 pg/mL
<7.8 pg/mL
<7.8 pg/mL
22 pg/mL
<7.8 pg/mL
<7.8 pg/mL
<7.8 pg/mL

Okay, here is my list. What is Activity for each of these?
1. CC(C)c1cc2c(cc1O)[C@@]1(C)CCC[C@](C)(C(=O)O)[C@@H]1CC2 [LAMBERTIC ACID]
2. COc1c(O)cc(-c2oc3cc(O)cc(O)c3c(=O)c2O)cc1O [MEARNSETIN]

Resp:
1: <7.8 pg/mL; 2: 31.3 pg/mL
